system-tested: UniProt:P00734
test-details: Inhibition of thrombin (unknown origin) assessed as fibrin clot formation
pIC50: −log10 of the molar value.

item-smiles	pIC50
N=C(N)c1ccc(CNC(=O)[C@@H]2CCCN2C(=O)[C@@H](NCC(=O)O)C(c2ccccc2)c2ccccc2)s1	7.80

====

test-details: Aqueous solubility of the compound at pH 6.62
Format: physicochemical
study-conditions: aqueous solution
readout-label: solubility (µg/mL)

item-smiles	output-unit	measured
N=C(N)c1ccc(CNC(=O)[C@@H]2CCCN2C(=O)[C@@H](NCC(=O)O)C(c2ccccc2)c2ccccc2)s1	µg/mL	570

====

test-details: Cmax in Sprague-Dawley rat at 30 mg/kg, po
Type: ADME, organism-based
Set-up: dose 30 mg/kg, route oral
study-conditions: in vivo

item-smiles	Cmax [ng/mL]
N=C(N)c1ccc(CNC(=O)[C@@H]2CCCN2C(=O)[C@@H](NCC(=O)O)C(c2ccccc2)c2ccccc2)s1	2900
